Reported values of IC50 activity group, enzyme release assay for individual entries
# Target Of Assay: human C5aR (CD88) (human, UniProt P21730 1-350)
# Sequence (looked up): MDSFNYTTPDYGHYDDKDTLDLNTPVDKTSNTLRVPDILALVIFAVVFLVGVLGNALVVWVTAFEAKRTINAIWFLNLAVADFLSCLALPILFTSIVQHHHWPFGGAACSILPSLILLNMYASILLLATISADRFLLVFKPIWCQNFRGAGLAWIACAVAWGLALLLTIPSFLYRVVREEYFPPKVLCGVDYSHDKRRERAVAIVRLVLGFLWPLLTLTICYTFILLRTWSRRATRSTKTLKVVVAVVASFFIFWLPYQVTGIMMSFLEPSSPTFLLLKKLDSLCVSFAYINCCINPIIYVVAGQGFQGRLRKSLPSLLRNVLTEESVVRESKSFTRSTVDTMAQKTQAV
# Test Summary: cell-based or functional assay

Reference set, count: 3
[
  {
    "Substance": "Ac-Gly-Thi-Orn-Aze-cha-Bta-Phe-NH2 (peptide)",
    "Result": "< 50 nM"
  },
  {
    "Substance": "Ac-Phe-Orn-Pro-ctb-Bta-Phe-NH2 (peptide)",
    "Result": "< 50 nM"
  },
  {
    "Substance": "Ac-Pff-Orn-Pro-hle-Bta-Phe-NH2 (peptide)",
    "Result": "< 200 nM"
  }
]

Query substance follows.
Query: # return IC50 activity group, enzyme release assay of Ac-Phe-Fcn-Pro-cha-Bta-Phe-NH2 (peptide) (system: human C5aR (CD88) (human, UniProt P21730 1-350))
Reply: < 20 nM

Data origin: patent US7727960B2
